experiment: cataleptic effect in rats (intraperitoneal); format: in vivo; conditions: rat, in vivo, ip; rats, intraperitoneal; recorded every 30 minutes over 6 hours; read-out: ED50 (dose at which 50% of the animals are cataleptic)
MEASURED_METRIC: TD50 at 6 h (mg/kg)
Answers are plain numbers, in mg/kg.

Worked cases, TD50 at 6 h given:
[
  {
    "MOLECULE": "CN1CCN(C2Cc3ccc(Cl)cc3Sc3ccc(F)cc32)CC1.O=C(O)/C=C\\C(=O)O (stereo not drawn)",
    "TD50 at 6 h / mg/kg": 100
  },
  {
    "MOLECULE": "O=C(O)/C=C\\C(=O)O.OCCCN1CCN(C2Cc3cc(Cl)ccc3Sc3ccc(F)cc32)CC1 (stereo not drawn)",
    "TD50 at 6 h / mg/kg": 64
  }
]

Now take the following molecule into account.
**Query** Which TD50 at 6 h value is on record for CN1CCN(C2Cc3cc(Cl)ccc3Sc3cc(F)ccc32)CC1.O=C(O)/C=C\C(=O)O (stereo not drawn) ?
**Result** 70
